# tested target: T1, human Trop2 on cells (human, UniProt P09758 27-323)
# T1 construct: whole, on cells; also called hTrop2; 293T-human Trop2 cells
# T1 sequence (looked up): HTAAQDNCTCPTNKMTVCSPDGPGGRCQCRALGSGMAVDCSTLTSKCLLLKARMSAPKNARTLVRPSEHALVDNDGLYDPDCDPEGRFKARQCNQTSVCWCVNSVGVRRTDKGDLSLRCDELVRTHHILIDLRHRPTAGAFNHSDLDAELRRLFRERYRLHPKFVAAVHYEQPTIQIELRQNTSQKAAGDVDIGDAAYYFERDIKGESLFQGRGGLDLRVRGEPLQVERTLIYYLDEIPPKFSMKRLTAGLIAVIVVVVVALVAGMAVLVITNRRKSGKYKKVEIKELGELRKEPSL
# assay remarks: flow cytometry on 293T-human Trop2 cells
metric: Top % (%)
State the answer as a number, implicitly in %.

- binder: "PR001164 (antibody, human IgG1, kappa, V domains shown, fully human IgG1/kappa; also called antibody No. (25)) VH: QVQLQQSGPGLVKPSQTLSLTCAISGDSVSSTSAVWNWIRQSPSRGLEWLGRTCYRSKWYNDYAVSVKSRITITPDTSKNQFSLRLNPVTPEDTAVYYCARGDFRFDSWGQGTLVTVSS VL: DIQLTQSPSFLSASVGDRVTITCRASQGISSYLAWYQQKPGKAPKLLIYAASTLQSGVPSRFSGSGSGTEFTLTISSLQPEDFATYYCQQVKIYPLTFGGGTKVEIKR"
  measurement: 138

# input for lookup
Just so you know, measured Top % for PR001142 (antibody, human IgG1, kappa, V domains shown, fully human IgG1/kappa; also called antibody No. (9)) VH: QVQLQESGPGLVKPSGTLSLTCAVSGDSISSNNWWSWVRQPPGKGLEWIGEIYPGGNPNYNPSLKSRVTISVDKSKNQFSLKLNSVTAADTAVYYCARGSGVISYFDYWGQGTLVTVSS VL: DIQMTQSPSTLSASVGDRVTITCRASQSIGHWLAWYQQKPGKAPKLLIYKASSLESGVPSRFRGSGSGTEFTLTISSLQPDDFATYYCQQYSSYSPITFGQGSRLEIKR came out at 101
